tested on: MDR1-MDCK cell monolayers; assay: Blood-brain-barrier (BBB) penetration potential via MDCK-MDR1 permeability assay; settings: B-A direction
MEASUREMENT NAME: MDCK-MDR1: Papp B-A

CN(c1ccc(-c2ccc(-c3cn[nH]c3)cc2O)nn1)C1CC2COCC(N2)C1F (centres unmarked) = 39.1 10^−6, cm/s
CN(c1ccc(-c2cc3cnccc3cc2O)nn1)[C@@H]1C[C@H]2CC[C@H](N2)[C@@H]1F (single isomer, unassigned) = 36.1 10^−6, cm/s
CN(c1ccc(-c2cc3c(=O)[nH]ccc3s2)nn1)[C@@H]1C[C@H]2CC[C@H](N2)[C@@H]1F = 7.34 10^−6, cm/s
COc1cc(-c2ccc(-c3ccc(N(C)[C@H]4CC5N[C@@H](C4)CC5(F)F)nn3)c(O)c2)cnn1 (single isomer, unassigned) = 52.8 10^−6, cm/s

Next, consider the following molecule.
Reported MDCK-MDR1: Papp B-A of CN(c1ccc(-c2ccc(-c3cnn(C)c3)cc2O)nn1)C1CC2COCC(N2)C1F (single isomer, unassigned) [Compound 80B] : 40.8 10^−6, cm/s

---

system: MDR1-MDCK cell monolayers; assay: Blood-brain-barrier (BBB) penetration potential via MDCK-MDR1 permeability assay; details: A-B direction
Please go through the items and note down their MDCK-MDR1: Papp A-B.

Observe how each entry below is paired with its result.
CN(c1ccc(-c2ccc(-c3cnn(C)c3)cc2O)nn1)C1CC2COCC(N2)C1F (single isomer, unassigned) [Compound 80B] = 6.01 10^−6, cm/s
COc1cc(-c2ccc(-c3ccc(N(C)[C@H]4CC5N[C@@H](C4)CC5(F)F)nn3)c(O)c2)cnn1 (single isomer, unassigned) = 9.99 10^−6, cm/s
CN(c1ccc(-c2ccc(-c3cn[nH]c3)cc2O)nn1)C1CC2COCC(N2)C1F (centres unmarked) = 2.04 10^−6, cm/s
CN(c1ccc(-c2cc3c(=O)[nH]ccc3s2)nn1)[C@@H]1C[C@H]2CC[C@H](N2)[C@@H]1F = 0.06 10^−6, cm/s

Proceed to the following item.
// recorded MDCK-MDR1: Papp A-B for CN(c1ccc(-c2cc3cnccc3cc2O)nn1)[C@@H]1C[C@H]2CC[C@H](N2)[C@@H]1F (single isomer, unassigned) : 4.27 10^−6, cm/s

---

test system: MDR1-MDCK cell monolayers; conditions: dog, MDCK-MDR1, 120 min, 5 μM, pH 7.4
Output: class label from MDCK-MDR1: % Recov A-B. Mapping: class 1 = under 80%, class 2 = from 80% up to 90%, class 3 = 90% and over

Below are worked cases with known answers.
CNC(=O)c1ccc(-c2ccc(N(C)[C@@H]3C[C@H]4CC[C@H](N4)[C@@H]3F)nn2)c(O)c1 (single isomer, unassigned) [Compound 77A] = class 3
CN(c1ccc(-c2cc3ncn(CC(F)(F)F)c(=O)c3cc2O)nn1)[C@H]1C[C@@H]2CC(F)(F)[C@H](C1)N2C (single isomer, unassigned) [Compound 110B] = class 2
CN(c1ccc(-c2cc3occc(=O)c3cc2O)nn1)[C@@H]1C[C@H]2CC[C@@H]([C@@H]1F)N2C (single isomer, unassigned) [Compound 94A] = class 1
CN(c1ccc(-c2cc3ccn(C)c(=O)c3cc2O)nn1)[C@@H]1C[C@H]2CC[C@@H]([C@@H]1F)N2C (single isomer, unassigned) [Compound 97A] = class 1
CN(c1ccc(-c2cc3cnccc3cc2O)nn1)[C@H]1C[C@@H]2CC(F)(F)[C@H](C1)N2 [Compound 126B] = class 1

Task: Returns: class label. Input: CN(c1ccc(-c2cc(F)c(-n3ccnn3)cc2O)nn1)[C@@H]1C[C@H]2CC[C@@H]([C@@H]1F)N2C [Compound 103A]
Output: class 2

Task: Hi there! Could you help me figure out the category for CN1[C@H]2CC[C@@H]1[C@@H](F)[C@@H](N(c1ccc(-c3cc4ncn(CC(F)(F)F)c(=O)c4cc3O)nn1)C1CC1)C2 (single isomer, unassigned) [Compound 111B] please?
Output: class 1

Task: Dear colleague, I would appreciate it if you could identify the bin for CN(c1ccc(-c2ccc(Oc3cnn(C)c3)cc2O)nn1)[C@@H]1C[C@H]2CC[C@H](N2)[C@@H]1F (single isomer, unassigned) [Compound 91A] and reply at your convenience.
Output: class 2

Task: Sort CN(C)C(=O)c1cc(O)c(-c2ccc(N(C)[C@H]3C[C@@H]4CC[C@@H](N4)[C@H]3F)nn2)cc1F (single isomer, unassigned) [Compound 53B] into one of the categories.
Output: class 3

Task: Input CN(c1ccc(-c2cc3ncn(CC(F)(F)F)c(=O)c3cc2O)nn1)[C@H]1C[C@@H]2CC[C@H]([C@H]1F)N2C (single isomer, unassigned) [Compound 108B] ; output its category
Output: class 3

Task: Using the reported MDCK-MDR1: % Recov A-B, which band applies to CN(c1ccc(-c2cc3ncn(CC(F)(F)F)c(=O)c3cc2O)nn1)[C@@H]1C[C@H]2CCC[C@@H]([C@@H]1F)N2C (single isomer, unassigned) [Compound 109A] ?
Output: class 1

Task: Which bin should I file CN(c1ccc(-c2ccc(C(F)F)cc2O)nn1)[C@@H]1C[C@H]2CC[C@H](N2)[C@@H]1F (single isomer, unassigned) [Compound 120A] under?
Output: class 1

---

system: MDR1 (P-gp); assay: in vitro; conditions: dog, MDCK-MDR1, pH 7.4
MEASUREMENT NAME: efflux ratio at 120 min, 5 μM

efflux ratio at 120 min, 5 μM recorded for this compound, CN(c1ccc(-c2cc3cnccc3cc2O)nn1)[C@H]1C[C@@H]2CC(F)(F)[C@H](C1)N2 [Compound 126B] , is 3

---

tested on: mHTT protein in GM04724 (CAG 70/20) Huntington's disease patient lymphoblast cells; assay: mHTT protein assay, 2B7-MW1 assay via Mesoscale Discovery (MSD); type: cell-based, human; settings: GM04724 Huntington's disease patient lymphoblasts
MEASUREMENT NAME: EC50

Example results:
CN(c1ccc(-c2ccc(C3=CCCC3)cc2O)nn1)[C@H]1C[C@@H]2CC[C@@H](N2)[C@H]1F [Compound 34B] = 51 to 100 nM
CN(c1ccc(-c2ccc(-n3ccnn3)cc2O)nn1)[C@H]1C[C@@H]2CCC[C@@H](N2)[C@H]1F [Compound 62B] = 0.01 to 15 nM
CN(c1ccc(-c2cc3ccncc3s2)nn1)[C@@H]1C[C@H]2CC[C@H](N2)[C@@H]1F [Compound 65A] = 101 to 500 nM
CC#Cc1ccc(-c2ccc(N(C)C3CC4CCC(N4)C3F)nn2)c(O)c1 (single isomer, unassigned) [Compound 30B] = 51 to 100 nM
CN(c1ccc(-c2cc3cnn(C)c3cc2O)nn1)[C@@H]1C[C@H]2CC[C@H](N2)[C@@H]1F [Compound 76A] = 16 to 50 nM
CN(c1ccc(-c2ccc(-c3ccn(C)n3)cc2O)nn1)[C@@H]1C[C@H]2CC[C@H](N2)[C@@H]1F (single isomer, unassigned) [Compound 36A] = 16 to 50 nM
CN(c1ccc(-c2cc3cccnc3cc2O)nn1)[C@@H]1C[C@H]2CCC[C@H](N2)[C@@H]1F [Compound 41A] = 0.01 to 15 nM
CN(c1ccc(-c2cc3cnn(C)c3cc2O)nn1)[C@H]1C[C@@H]2CC[C@@H](N2)[C@H]1F [Compound 76B] = 0.01 to 15 nM
CN(c1ccc(-c2ccc(-c3cnccn3)cc2O)nn1)[C@@H]1C[C@H]2CCC[C@H](N2)[C@@H]1F [Compound 24A] = 51 to 100 nM
COc1cc(-c2ccc(-c3ccc(N(C)[C@H]4CC5N[C@@H](C4)CC5(F)F)nn3)c(O)c2)cnn1 (single isomer, unassigned) [Compound 2B] = 0.01 to 15 nM

Each compound below has a recorded value; state its EC50.
1. CN(c1ccc(-c2cc3ncccc3cc2O)nn1)[C@@H]1C[C@H]2CC[C@H](N2)[C@@H]1F [Compound 73A]
2. CCc1cn(-c2ccc(-c3ccc(N(C)[C@@H]4C[C@H]5CC(F)(F)[C@@H](C4)N5)nn3)c(O)c2)cn1 [Compound 18A]
3. CN(c1ccc(-c2ccc(-c3cnn(C)c3)cc2O)nn1)[C@H]1C[C@@H]2CCC[C@@H](N2)[C@@H]1F [Compound 14B]
4. Cn1cnc2cc(-c3ccc(N(C4CC4)[C@H]4C[C@@H]5CC[C@@H](N5)[C@H]4F)nn3)c(O)cc2c1=O [Compound 56B]
5. CN(c1ccc(-c2cc(F)c(-c3ccoc(=O)c3)cc2O)nn1)[C@H]1C[C@@H]2CC[C@@H](N2)[C@H]1F [Compound 17B]

Output:
1: 0.01 to 15 nM; 2: 51 to 100 nM; 3: 0.01 to 15 nM; 4: 0.01 to 15 nM; 5: 16 to 50 nM

Consider the following items and state reported EC50 for each.
1. CN(c1ccc(-c2cc3ncn(C)c(=O)c3cc2O)nn1)[C@H]1C[C@@H]2CC[C@@H](N2)[C@H]1F [Compound 51B]
2. O=C(c1cc2cc(O)c(-c3ccc(N(C4CC4)[C@H]4C[C@@H]5CC[C@@H](N5)[C@H]4F)nn3)cc2o1)N1CCC1 [Compound 57B]
3. CN(c1ccc(-c2cc3c(=O)n(C)ccc3s2)nn1)[C@@H]1C[C@H]2CC[C@H](N2)[C@@H]1F (single isomer, unassigned) [Compound 68A]
4. CN(c1ccc(-c2cc3ncn(CC(F)(F)F)c(=O)c3cc2O)nn1)[C@@H]1C[C@H]2CCC[C@H](N2)[C@@H]1F [Compound 58A]
5. Cc1ccc(-c2ccc(-c3ccc(N(C)[C@H]4C[C@@H]5CCC[C@@H](N5)[C@H]4F)nn3)c(O)c2)nn1 [Compound 27B]

Output:
0.01 to 15 nM
0.01 to 15 nM
101 to 500 nM
101 to 500 nM
0.01 to 15 nM

Source of measurements: patent US12509460B2
